IC50 listing for selected compounds.
MEASUREMENT_TARGET: GABA-A receptor; anion channel
TEST_NAME: Inhibition of binding of tritiated 3[H]diazepam radioligand to rat brain homogenates
Format: tissue-based
Give the number; nM is assumed, so skip it.

Worked cases, IC50 given:
1. N#Cc1c(O)ncc2c1Nc1ccccc1[S+]2[O-] (configuration not stated): 4250
2. N#Cc1c(O)ncc2c1Nc1ccc(Br)cc1S2: 8000
3. N#Cc1c(O)ncc2c1Nc1ccc(N)cc1S2: 910

Lab book: IC50 of N#Cc1c(O)ncc2c1Nc1ccccc1S2 noted as 450

Lab book: IC50 of N#Cc1c(O)ncc2c1Nc1cc(Cl)ccc1S2(=O)=O noted as 7600

Lab book: IC50 of N#Cc1c(O)ncc2c1Nc1ccc(Cl)cc1S2(=O)=O noted as 634

Lab book: IC50 of CN1c2ccccc2Sc2cn(C)c(=O)c(C#N)c21 noted as 100000

Lab book: IC50 of CN1c2ccccc2Sc2cnc(O)c(C#N)c21 noted as 314

Lab book: IC50 of N#Cc1c(O)ncc2c1Nc1ccccc1S2(=O)=O noted as 11000

Lab book: IC50 of N#Cc1c(O)ncc2c1Nc1ccc([N+](=O)[O-])cc1S2 noted as 800

Lab book: IC50 of Cc1nc(O)c(C#N)c2c1Sc1ccccc1N2 noted as 1700

* * *

MEASUREMENT_TARGET: GABA-A receptor; anion channel
TEST_NAME: Inhibition of binding of tritiated 3[H]diazepam radioligand to rat brain homogenates
MEASURED_PARAMETER: pIC50
FYI, pIC50 means -log10 of a concentration in mol per litre.

Lab book: pIC50 of N#Cc1c(O)ncc2c1Nc1cc(Cl)ccc1S2 noted as 6.40

Lab book: pIC50 of Cn1cc2c(c(C#N)c1=O)Nc1ccccc1S2 noted as 4.77

Lab book: pIC50 of N#Cc1c(O)ncc2c1Nc1cc(Cl)ccc1[S+]2[O-] (stereo unspecified) noted as 4.46

Lab book: pIC50 of N#Cc1c(O)ncc2c1Nc1ccc(Cl)cc1S2 noted as 6.49

Lab book: pIC50 of CNC1=Nc2ccc(Cl)cc2C(c2ccccc2)=[N+]([O-])C1 [CHLORDIAZEPOXIDE] noted as 6.35

Lab book: pIC50 of COc1cc2c(cc1OC)Sc1cnc(O)c(C#N)c1N2 noted as 4.00

Taken from ChEMBL document CHEMBL1122231.
